Test system: avoidance response to electrical shock in trained fasted rats
assay-notes: Conditioned Avoidance Response (CAR)
Format: in vivo
conditions: Rattus norvegicus, po
quantity-measured: log10 of ED50 (log10 of the value in mg/kg)
// do not treat as linear: log10 of ED50, unit mg/kg

Here's what some known entries look like.
1. O=C1CSCC(=O)N1CCCCN1CCN(c2nccc3occc23)CC1: 1.56
2. Cn1ccc2c(N3CCN(CCCCN4C(=O)CC(C)(C)CC4=O)CC3)nccc21: 1.83
3. CC1(C)CC(=O)N(CCCCN2CCN(c3nccc4sccc34)CC2)C(=O)C1: 0.78
4. Cc1cc2c(N3CCN(CCCCN4C(=O)SC5(CCCC5)C4=O)CC3)nccc2o1: 1.45
5. Cc1cc2c(N3CCN(CCCCN4C(=O)SC5(CCCC5)C4=O)CC3)nccc2s1: 1.54
6. O=C1SC2(CCCC2)C(=O)N1CCCCN1CCN(c2nccc3occc23)CC1: 0.95

Report measured log10 of ED50 on avoidance response to electrical shock in trained fasted rats; entry: CC1(C)CC(=O)N(CCCCN2CCN(c3nccc4sc(Br)cc34)CC2)C(=O)C1
1.81

Report measured log10 of ED50 on avoidance response to electrical shock in trained fasted rats; entry: O=C1CCCC(=O)N1CCCCN1CCN(c2nccc3sccc23)CC1
0.70

---

System: avoidance response to electrical shock in trained fasted rats
assay-notes: Conditioned Avoidance Response (CAR)
Assay type: in vivo
conditions: Rattus norvegicus, po
quantity-measured: ED50

1. O=C1COCC(=O)N1CCCCN1CCN(c2nccc3occc23)CC1: 11 mg/kg
2. Cc1cc2c(N3CCN(CCCCN4C(=O)CC(C)(C)CC4=O)CC3)nccc2o1: 14 mg/kg
3. OC(CCCN1CCN(c2nccc3occc23)CC1)c1ccc(F)cc1 (stereo not drawn): 3 mg/kg
4. O=C1SC2(CCCC2)C(=O)N1CCCCN1CCN(c2nccc3sccc23)CC1: 12 mg/kg
5. Cn1ccc2c(N3CCN(CCCCN4C(=O)COCC4=O)CC3)nccc21: > 100 mg/kg

Shift focus to the following entry.
Give the measured ED50 for Cn1ccc2c(N3CCN(CCCCN4C(=O)SC5(CCCC5)C4=O)CC3)nccc21
60 mg/kg

---

assay-notes: Catalepsy (drug-induced catalepsy)
Type: in vivo
conditions: rat, in vivo, po, rats; read-out: Catalepsy Induction ED50
quantity-measured: ED50 (mg/kg)
Numeric only. Scale: mg/kg

1. CC1(C)CC(=O)N(CCCCN2CCN(c3nccc4occc34)CC2)C(=O)C1 [Example 38]: 13

Give the measured ED50 for OC(CCCN1CCN(c2nccc3occc23)CC1)c1ccc(F)cc1 (stereo not drawn) [Example 39]
11

Give the measured ED50 for O=C1SC2(CCCC2)C(=O)N1CCCCN1CCN(c2nccc3occc23)CC1 [Example 37]
23

Give the measured ED50 for Cc1cc2c(N3CCN(CCCCN4C(=O)CC(C)(C)CC4=O)CC3)nccc2o1 [Example 41]
40

---

Tested on: avoidance response to electrical shock in trained fasted rats
assay-notes: Conditioned Avoidance Response (CAR)
Assay type: in vivo
conditions: Rattus norvegicus, po
The entries below come with measured ED50 values attached.
Numeric only. Scale: mg/kg

1. O=C1CSCC(=O)N1CCCCN1CCN(c2nccc3sccc23)CC1 [Example 31]: 32

Give the measured ED50 for OC(CCCN1CCN(c2nccc3sccc23)CC1)c1ccc(F)cc1 (centres unmarked) [Example 27]
10

Give the measured ED50 for CC1(C)CC(=O)N(CCCCN2CCN(c3nccc4occc34)CC2)C(=O)C1 [Example 38]
4

Give the measured ED50 for O=C1SC2(CCCC2)C(=O)N1CCCCN1CCN(c2nccc3ccsc23)CC1 [Example 36]
43

Give the measured ED50 for Cc1cc2c(N3CCN(CCCC(O)c4ccc(F)cc4)CC3)nccc2o1 (centres unmarked) [Example 43]
23
